- System: Candida albicans 3669
- methodNotes: antifungal plate test procedure
- Type: cell-based
- measurementConditions: Candida albicans, 3669, strain 3669; read-out: MIC
Measured MIC by item

Illustrative cases are given below, each with its answer.
1) CO[C@H]1C[C@@H]2CC[C@@H](C)[C@@](O)(O2)C(=O)C(=O)N2CCCC[C@H]2C(=O)O[C@H]([C@H](C)C[C@@H]2CC[C@@H](OC(=O)CCC(=O)OCc3ccccc3)[C@H](OC)C2)CC(=O)[C@H](C)/C=C(\C)[C@@H](O)[C@@H](OC)C(=O)[C@H](C)C[C@H](C)/C=C/C=C/C=C/1C [Example 3, Rapamycin-42-(monobenzylsuccinate)]: 0.1 µg/mL
2) CO[C@H]1C[C@@H]2CC[C@@H](C)[C@@](O)(O2)C(=O)C(=O)N2CCCC[C@H]2C(=O)O[C@H]([C@H](C)C[C@@H]2CC[C@@H](OC(=O)CCCC(=O)O)[C@H](OC)C2)CC(=O)[C@H](C)/C=C(\C)[C@@H](OC(=O)CCCC(=O)O)[C@@H](OC)C(=O)[C@H](C)C[C@H](C)/C=C/C=C/C=C/1C [Example 4, Rapamycin-31,42-bishemiglutarate]: 0.4 µg/mL

QUERY: Form field: reported MIC of CO[C@H]1C[C@@H]2CC[C@@H](C)[C@@](O)(O2)C(=O)C(=O)N2CCCC[C@H]2C(=O)O[C@H]([C@H](C)C[C@@H]2CC[C@@H](OC(=O)CCC(=O)O)[C@H](OC)C2)CC(=O)[C@H](C)/C=C(\C)[C@@H](OC(=O)CCC(=O)O)[C@@H](OC)C(=O)[C@H](C)C[C@H](C)/C=C/C=C/C=C/1C [Example 11, Rapamycin-31,42-bishemisuccinate]
RESULT: > 0.4 µg/mL

---

- Tested on: Candida albicans ATCC 38246
- methodNotes: antifungal plate test procedure
- Type: cell-based
- measurementConditions: Candida albicans, ATCC38246, ATCC 38246; read-out: MIC
Listed below: MIC values for each entry.

Guide cases for MIC, answers given:
1) CO[C@H]1C[C@@H]2CC[C@@H](C)[C@@](O)(O2)C(=O)C(=O)N2CCCC[C@H]2C(=O)O[C@H]([C@H](C)C[C@@H]2CC[C@@H](OC(=O)CCC(=O)OCc3ccccc3)[C@H](OC)C2)CC(=O)[C@H](C)/C=C(\C)[C@@H](OC(=O)CCC(=O)OCc2ccccc2)[C@@H](OC)C(=O)[C@H](C)C[C@H](C)/C=C/C=C/C=C/1C [Example 2, Rapamycin-31,42-bis(monobenzylsuccinate)]: 0.4 µg/mL
2) CO[C@H]1C[C@@H]2CC[C@@H](C)[C@@](OC(=O)CCC(=O)OCc3ccccc3)(O2)C(=O)C(=O)N2CCCC[C@H]2C(=O)O[C@H]([C@H](C)C[C@@H]2CC[C@@H](OC(=O)CCC(=O)OCc3ccccc3)[C@H](OC)C2)CC(=O)[C@H](C)/C=C(\C)[C@@H](OC(=O)CCC(=O)OCc2ccccc2)[C@@H](OC)C(=O)[C@H](C)C[C@H](C)/C=C/C=C/C=C/1C: > 0.4 µg/mL

QUERY: Can you look up the measured MIC of CO[C@H]1C[C@@H]2CC[C@@H](C)[C@@](O)(O2)C(=O)C(=O)N2CCCC[C@H]2C(=O)O[C@H]([C@H](C)C[C@@H]2CC[C@@H](OC(=O)COCC(=O)O)[C@H](OC)C2)CC(=O)[C@H](C)/C=C(\C)[C@@H](O)[C@@H](OC)C(=O)[C@H](C)C[C@H](C)/C=C/C=C/C=C/1C [Example 7, Rapamycin-42-hemi-3'-oxoglutarate] for me?
RESULT: 0.4 µg/mL

QUERY: Try the compound CO[C@H]1C[C@@H]2CC[C@@H](C)[C@@](O)(O2)C(=O)C(=O)N2CCCC[C@H]2C(=O)O[C@H]([C@H](C)C[C@@H]2CC[C@@H](OC(=O)CCC(=O)OCc3ccccc3)[C@H](OC)C2)CC(=O)[C@H](C)/C=C(\C)[C@@H](O)[C@@H](OC)C(=O)[C@H](C)C[C@H](C)/C=C/C=C/C=C/1C [Example 3, Rapamycin-42-(monobenzylsuccinate)]
RESULT: 0.1 µg/mL

QUERY: Entry to check: CO[C@H]1C[C@@H]2CC[C@@H](C)[C@@](O)(O2)C(=O)C(=O)N2CCCC[C@H]2C(=O)O[C@H]([C@H](C)C[C@@H]2CC[C@@H](OC(=O)COCC(=O)O)[C@H](OC)C2)CC(=O)[C@H](C)/C=C(\C)[C@@H](OC(=O)COCC(=O)O)[C@@H](OC)C(=O)[C@H](C)C[C@H](C)/C=C/C=C/C=C/1C
RESULT: > 0.4 µg/mL

QUERY: # repeat for CO[C@H]1C[C@@H]2CC[C@@H](C)[C@@](O)(O2)C(=O)C(=O)N2CCCC[C@H]2C(=O)O[C@H]([C@H](C)C[C@@H]2CC[C@@H](OC(=O)CCCC(=O)O)[C@H](OC)C2)CC(=O)[C@H](C)/C=C(\C)[C@@H](OC(=O)CCCC(=O)O)[C@@H](OC)C(=O)[C@H](C)C[C@H](C)/C=C/C=C/C=C/1C [Example 4, Rapamycin-31,42-bishemiglutarate]
RESULT: 0.2 µg/mL

QUERY: Next compound: CO[C@H]1C[C@@H]2CC[C@@H](C)[C@@](O)(O2)C(=O)C(=O)N2CCCC[C@H]2C(=O)O[C@H]([C@H](C)C[C@@H]2CC[C@@H](OC(=O)CCC(=O)O)[C@H](OC)C2)CC(=O)[C@H](C)/C=C(\C)[C@@H](OC(=O)CCC(=O)O)[C@@H](OC)C(=O)[C@H](C)C[C@H](C)/C=C/C=C/C=C/1C [Example 11, Rapamycin-31,42-bishemisuccinate]
RESULT: > 0.4 µg/mL

---

- System: lymphocyte proliferation, cells from the thymus of normal BALB/c mice (PHA and IL-1)
- methodNotes: comitogen-induced thymocyte proliferation procedure (LAF)
- Assay type: cell-based
- measurementConditions: ratio, thymocytes 72 hours with PHA and IL-1; rapamycin 1.0
measurementLabel: LAF (ratio)
Could you respond with only the numeric value?

Below are worked cases with known answers.
1) CO[C@H]1C[C@@H]2CC[C@@H](C)[C@@](O)(O2)C(=O)C(=O)N2CCCC[C@H]2C(=O)O[C@H]([C@H](C)C[C@@H]2CC[C@@H](OC(=O)COCC(=O)O)[C@H](OC)C2)CC(=O)[C@H](C)/C=C(\C)[C@@H](O)[C@@H](OC)C(=O)[C@H](C)C[C@H](C)/C=C/C=C/C=C/1C [Example 7, Rapamycin-42-hemi-3'-oxoglutarate]: 0.97
2) CO[C@H]1C[C@@H]2CC[C@@H](C)[C@@](O)(O2)C(=O)C(=O)N2CCCC[C@H]2C(=O)O[C@H]([C@H](C)C[C@@H]2CC[C@@H](OC(=O)CCC(=O)OCc3ccc(C(F)(F)F)cc3)[C@H](OC)C2)CC(=O)[C@H](C)/C=C(\C)[C@@H](O)[C@@H](OC)C(=O)[C@H](C)C[C@H](C)/C=C/C=C/C=C/1C: 2.11
3) C=CCOC(=O)CCCC(=O)O[C@@H]1/C(C)=C/[C@@H](C)C(=O)C[C@@H]([C@H](C)C[C@@H]2CC[C@@H](O)[C@H](OC)C2)OC(=O)[C@@H]2CCCCN2C(=O)C(=O)[C@]2(O)O[C@@H](CC[C@H]2C)C[C@H](OC)/C(C)=C/C=C/C=C/[C@@H](C)C[C@@H](C)C(=O)[C@@H]1OC [Example 15, Rapamycin-31-allylglutarate]: 0.40
4) C=CCOC(=O)CCCC(=O)O[C@@H]1CC[C@@H](C[C@@H](C)[C@@H]2CC(=O)[C@H](C)/C=C(\C)[C@@H](O)[C@@H](OC)C(=O)[C@H](C)C[C@H](C)/C=C/C=C/C=C(\C)[C@@H](OC)C[C@@H]3CC[C@@H](C)[C@@](O)(O3)C(=O)C(=O)N3CCCC[C@H]3C(=O)O2)C[C@H]1OC [Example 14, Rapamycin-42-allylglutarate]: 3.42

QUERY: Name the recorded LAF (ratio) for CO[C@H]1C[C@@H]2CC[C@@H](C)[C@@](O)(O2)C(=O)C(=O)N2CCCC[C@H]2C(=O)O[C@H]([C@H](C)C[C@@H]2CC[C@@H](OC(=O)COCC(=O)O)[C@H](OC)C2)CC(=O)[C@H](C)/C=C(\C)[C@@H](OC(=O)COCC(=O)O)[C@@H](OC)C(=O)[C@H](C)C[C@H](C)/C=C/C=C/C=C/1C [Example 10] .
RESULT: 0.18
